# System: Pseudomonas aeruginosa
# Format: cell-based
# protocol-conditions: strain ATCC 27853
assay-readout: MIC P. aeruginosa ATCC 27853 (µg/mL)
Give just the number in µg/mL; leave the unit off.

Past entries and their recorded results:
molecule | target-or-system | MIC P. aeruginosa ATCC 27853 / µg/mL
CC(C)C[C@@H]1NC(=O)[C@@H](CC2CCCCC2)NC(=O)[C@H](CCN)NC(=O)[C@@H](NC(=O)[C@H](CCN)NC(=O)[C@@H](NC(=O)CC(CN)C2CCCCC2)[C@@H](C)O)CCNC(=O)[C@H]([C@@H](C)O)NC(=O)[C@H](CCN)NC(=O)[C@H](CCN)NC1=O (single isomer, unassigned; isomer 1) [Example 86] | Pseudomonas aeruginosa | 0.25
CC(C)C[C@@H]1NC(=O)[C@@H](CC2CCCCC2)NC(=O)[C@H](CCN)NC(=O)[C@@H](NC(=O)[C@H](CCN)NC(=O)[C@@H](NC(=O)CC(CN)c2ccccc2)[C@@H](C)O)CCNC(=O)[C@H]([C@@H](C)O)NC(=O)[C@H](CCN)NC(=O)[C@H](CCN)NC1=O (single isomer, unassigned; isomer 1) [Example 56] | Pseudomonas aeruginosa | 0.25

// output MIC P. aeruginosa ATCC 27853; input CC(C)C[C@@H]1NC(=O)[C@@H](CC2CCCCC2)NC(=O)[C@H](CCN)NC(=O)[C@@H](NC(=O)[C@H](CCN)NC(=O)[C@@H](NC(=O)CC(CN)CC2CCCCC2)[C@@H](C)O)CCNC(=O)[C@H]([C@@H](C)O)NC(=O)[C@H](CCN)NC(=O)[C@H](CCN)NC1=O (single isomer, unassigned; isomer 1) [Example 91] ; system Pseudomonas aeruginosa
0.25

###

Each entry below lists one item and its recorded MIC P. aeruginosa ATCC 27853 value.
# System: Pseudomonas aeruginosa
# Assay type: cell-based
# protocol-conditions: strain ATCC 27853
State just the number; it will be interpreted in µg/mL.

Given CC(C)C[C@@H]1NC(=O)[C@@H](CC2CCCCC2)NC(=O)[C@H](CCN)NC(=O)[C@@H](NC(=O)[C@H](CN)NC(=O)[C@@H](NC(=O)CC(CN)Cc2ccccc2)[C@@H](C)O)CCNC(=O)[C@H]([C@@H](C)O)NC(=O)[C@H](CCN)NC(=O)[C@H](CCN)NC1=O (single isomer, unassigned; isomer 2) [Example 59] , respond with its MIC P. aeruginosa ATCC 27853.
0.25

For the compound CC(C)C[C@@H]1NC(=O)[C@@H](CC2CCCCC2)NC(=O)[C@H](CCN)NC(=O)[C@@H](NC(=O)[C@H](CCN)NC(=O)[C@@H](NC(=O)CC(CN)Cc2ccccc2)[C@@H](C)O)CCNC(=O)[C@H]([C@@H](C)O)NC(=O)[C@H](CCN)NC(=O)[C@H](CCN)NC1=O (single isomer, unassigned; isomer 1) [Example 66] , give its measured MIC P. aeruginosa ATCC 27853 value.
0.25

Tell me MIC P. aeruginosa ATCC 27853 reported for CC(C)C[C@@H]1NC(=O)[C@@H](CC2CCCCC2)NC(=O)[C@H](CCN)NC(=O)[C@@H](NC(=O)[C@H](CN)NC(=O)[C@@H](NC(=O)CC(CN)C2CCCCC2)C(C)O)CCNC(=O)[C@H]([C@@H](C)O)NC(=O)[C@H](CCN)NC(=O)[C@H](CCN)NC1=O (single isomer, unassigned; isomer 1) [Example 42]
0.5
